- experimentalSystem: prototypic SARS-CoV-2 spike protein (Severe acute respiratory syndrome coronavirus 2, UniProt P0DTC2, K986P/R682S/R683G/R685G/V987P)
- testMethodNotes: biochemical
- Assay type: binding
# Response at 50 μM (%) values compiled below
The answer should be a number; do not append a unit.

Solved entries:
molecule: CC(=O)Nc1ccc(-c2cn3cc(Sc4ccccc4)ccc3n2)cc1 [AQ-776/42801545]
valueReported: 19.5
--
molecule: CCCOC(=O)c1ccc(OCC(=O)c2ccc(O)cc2O)cc1 [F3139-1680]
valueReported: 13.9
--
molecule: COc1ccc(-c2cc(COC(=O)CC3CCCCC3)no2)cc1 [F2496-0660]
valueReported: 10.1
--
molecule: O=C(Cc1cccnc1)N1CC(n2cc(COc3ccccc3)nn2)C1 [F6514-4048]
valueReported: 10.5

## Task Using the record for COc1ccc(-n2nnc3c(SCC(=O)OCc4ccccc4)ncnc32)cc1 [F0682-1220] , report its Response at 50 μM (%).
## Result 9

## Task Using the record for O=C(COC(=O)c1ccc(Cl)cc1Cl)c1ccc(OC(=O)c2ccco2)cc1 [AK-918/41968204] , report its Response at 50 μM (%).
## Result 5.4

## Task Using the record for CCCCOC(=O)c1ccc(NC(=O)c2cc(=O)c(OC)co2)cc1 [F5449-0108] , report its Response at 50 μM (%).
## Result 15.8

## Task Using the record for CCC(=O)Nc1ccc(C(=O)OCC(=O)c2ccc(Cl)c(Cl)c2)cc1 [AJ-292/41945407] , report its Response at 50 μM (%).
## Result 7.7

## Task Using the record for COCCNC(=O)N1CC(c2nc(-c3cccc(Cl)c3)no2)C1 [F6064-2993] , report its Response at 50 μM (%).
## Result 9.8

## Task Using the record for Cc1nc(C)c(-c2nnc(SCc3nc(-c4cccs4)oc3C)o2)s1 [T6037875] , report its Response at 50 μM (%).
## Result 18.3

## Task Using the record for CCCCCCCOc1ccc(C2=N/C(=C/c3ccco3)C(=O)O2)cc1 [0782-7025] , report its Response at 50 μM (%).
## Result 12.8

## Task Using the record for Cc1cc(C(=O)CSc2nnc(-c3nnc(-c4ccccc4)o3)o2)c(C)n1C [T6388553] , report its Response at 50 μM (%).
## Result 18.3

## Task Using the record for c1csc(-c2noc(CSc3nnc(NC4CC4)s3)n2)c1 [T6141058] , report its Response at 50 μM (%).
## Result 14.3

## Task Using the record for O=c1/c(=C/c2ccc(-c3cccc([N+](=O)[O-])c3)o2)sc2nc(-c3cccs3)nn12 [5629-0125] , report its Response at 50 μM (%).
## Result 16

## Task Using the record for N#Cc1ccc(/N=C/c2cc([N+](=O)[O-])ccc2Cl)cc1 [AE-641/08724023] , report its Response at 50 μM (%).
## Result 19

## Task Using the record for O=C(CCn1ccc(=O)[nH]c1=O)NCc1cc(-c2ccccc2F)on1 [F2493-3278] , report its Response at 50 μM (%).
## Result 18.5

## Task Using the record for O=C(OCc1cc(-c2ccc(F)cc2F)on1)c1ccc2[nH]cnc2c1 [F2496-3037] , report its Response at 50 μM (%).
## Result 3.6

## Task Using the record for CCOc1ccc(C(=O)COC(=O)c2ccc(NC(C)=O)cc2)cc1 [AK-918/42180074] , report its Response at 50 μM (%).
## Result 5.7

## Task Using the record for c1ccc(-c2nnc(SCCCSc3nnc(-c4ccccc4)o3)o2)cc1 [T6013936] , report its Response at 50 μM (%).
## Result 17.1

## Task Using the record for CCCCOC(=O)c1ccc(OC(=O)c2cccc3ccccc23)cc1 [AN-652/43024838] , report its Response at 50 μM (%).
## Result 5.6

## Task Using the record for COc1cccc(/C=C2/N=C(c3ccc(NC(C)=O)cc3)OC2=O)c1 [2082-0203] , report its Response at 50 μM (%).
## Result 17.9

## Task Using the record for Cc1cccc(-c2noc(CCc3nc(C4CCOC4)no3)n2)c1 (centres unmarked) [compound 18297954] , report its Response at 50 μM (%).
## Result 16.5

## Task Using the record for O=C(OCc1cc(-c2cc3ccccc3o2)on1)c1ccc2[nH]cnc2c1 [F2496-3295] , report its Response at 50 μM (%).
## Result 16.2

## Task Using the record for COc1ccc(/C=C/c2nn3c(Cc4ccccc4F)nnc3s2)cc1 [AP-501/43286897] , report its Response at 50 μM (%).
## Result 17.8

## Task Using the record for O=C(Cc1noc2ccccc12)N1CC(c2nc(-c3ccc[nH]c3=O)no2)C1 [F6064-7687] , report its Response at 50 μM (%).
## Result 9.3
